FYI, the data here is from patent US6686343B1.

assay-metric: melting point

Field: example entries. Status: answers known.
INSERT INTO measurements (structure, obs_value) VALUES
  ('CSCCc1nc2nc[nH]c2c2nc(-c3ccc(C(F)(F)F)cc3)nn12', '≥ 255 °C (dec.)'),
  ('COCc1nc2nc[nH]c2c2nc(-c3ccc(C(F)(F)F)cc3)nn12', '≥ 280 °C'),
  ('CCSCc1nc2nc[nH]c2c2nc(-c3ccc(-c4ccccc4)cc3)nn12', '264 to 266 °C'),
  ('COCCc1nc2nc[nH]c2c2nc(-c3ccc(Cl)cc3)nn12', '≥ 278 °C (dec.)'),
  ('CSCc1nc2nc[nH]c2c2nc(-c3ccc(-c4ccccc4)cc3)nn12', '284 to 286 °C'),
  ('COC(=O)CCCc1nc2nc[nH]c2c2nc(-c3ccccc3)nn12', '228 to 230 °C'),
  ('COc1cc(-c2nc3c4[nH]cnc4nc(CCSC)n3n2)cc(OC)c1OC', '233 to 234 °C'),
  ('CCOP(=O)(O)Cc1nc2nc[nH]c2c2nc(-c3ccc(C(F)(F)F)cc3)nn12', '268 to 270 °C');

Switching to the query record.
Supply melting point value. Item: CC(C)(C)c1ccc(-c2nc3c4[nH]cnc4nc(CCS(C)(=O)=O)n3n2)cc1
≥ 201 °C (dec.)

----------
assay-metric: melting point

The following compounds have reported results that may help.
INSERT INTO results (compound, assay_metric, obs_value) VALUES
  ('COCCc1nc2nc[nH]c2c2nc(-c3ccc(C(F)(F)F)cc3)nn12 [Example 26]', 'melting point', '≥ 256 °C (dec.)'),
  ('COCc1nc2nc[nH]c2c2nc(-c3cc(OC)c(OC)c(OC)c3)nn12 [Example 6]', 'melting point', '≥ 280 °C'),
  ('COCCc1nc2nc[nH]c2c2nc(-c3ccc(C(C)(C)C)cc3)nn12 [Example 16]', 'melting point', '237 to 239 °C'),
  ('CCOCc1nc2nc[nH]c2c2nc(-c3cc(OC)c(OC)c(OC)c3)nn12 [Example 5]', 'melting point', '254 to 255.5 °C'),
  ('CC(C)(C)c1ccc(-c2nc3c4[nH]cnc4nc(CCCC(=O)O)n3n2)cc1 [Example 35]', 'melting point', '≥ 280 °C'),
  ('CCOP(=O)(Cc1nc2nc[nH]c2c2nc(-c3ccc(-c4ccccc4)cc3)nn12)OCC', 'melting point', '188 to 192 °C'),
  ('CCOP(=O)(Cc1nc2nc[nH]c2c2nc(-c3ccc(C(C)(C)C)cc3)nn12)OCC', 'melting point', '162 to 166 °C'),
  ('COC(=O)CCCc1nc2nc[nH]c2c2nc(-c3ccc(Cl)cc3)nn12 [Example 30]', 'melting point', '261 to 262.5 °C');

State its melting point: CCOC(=O)CCc1nc2nc[nH]c2c2nc(-c3ccc(-c4ccccc4)cc3)nn12 [Example 20]
241.5 to 244 °C

Name the recorded melting point of the compound listed here: C[S+]([O-])CCc1nc2nc[nH]c2c2nc(-c3ccc(-c4ccccc4)cc3)nn12 (centres unmarked) [Example 61]
≥ 234 °C (dec.)

Respond only with melting point recorded for COC(=O)CCCc1nc2nc[nH]c2c2nc(-c3ccc(-c4ccccc4)cc3)nn12 [Example 21]
243 to 245.5 °C

Output measured melting point for this item: CCOCc1nc2nc[nH]c2c2nc(-c3ccccc3)nn12 [Example 11]
247 to 249 °C

Please look at this compound and report its melting point: COC(=O)CCCc1nc2nc[nH]c2c2nc(-c3ccc(C(C)(C)C)cc3)nn12 [Example 23]
169 to 172.5 °C

Give the value of melting point reported for the following: c1ccc(-c2ccc(-c3nc4c5[nH]cnc5nc(C5CCCC5)n4n3)cc2)cc1 [Example 46]
≥ 280 °C

Give the reported melting point for this compound. COCc1nc2nc[nH]c2c2nc(-c3ccc(C(C)(C)C)cc3)nn12 [Example 15]
≥ 280 °C

----------
# melting point per record follows

Solved entries:
INSERT INTO assay_data (compound, obs_value) VALUES
  ('CCCOc1ccc(-c2nc3c4[nH]cnc4nc(COCC)n3n2)cc1', '262 to 263 °C'),
  ('CN(C)Cc1nc2nc[nH]c2c2nc(-c3ccc(-c4ccccc4)cc3)nn12', '284 to 286 °C (dec.)'),
  ('COCCc1nc2nc[nH]c2c2nc(-c3ccccc3)nn12 (hydrate or solvate)', '217.5 to 218.5 °C'),
  ('c1ccc(COCCCc2nc3nc[nH]c3c3nc(-c4ccc(-c5ccccc5)cc4)nn23)cc1', '237 to 238 °C'),
  ('CC(=O)OCc1nc2nc[nH]c2c2nc(-c3ccc(-c4ccccc4)cc3)nn12', '233 to 235 °C'),
  ('C[S+]([O-])CCc1nc2nc[nH]c2c2nc(-c3ccc(C(F)(F)F)cc3)nn12 (centres unmarked)', '≥ 203 °C (dec.)');

Identify measured melting point associated with CCOC(=O)CCCCc1nc2nc[nH]c2c2nc(-c3ccc(-c4ccccc4)cc3)nn12
241 to 243 °C

Indicate its recorded melting point; the compound in question is CSCCc1nc2nc[nH]c2c2nc(-c3ccc(-c4ccccc4)cc3)nn12
249 to 251 °C

Respond only with melting point recorded for C[S+]([O-])CCc1nc2nc[nH]c2c2nc(-c3ccc(C(C)(C)C)cc3)nn12 (centres unmarked)
≥ 162 °C (dec.)

----------
assay-metric: melting point

Consider the worked cases shown below.
INSERT INTO measurements (compound, assay_metric, obs_value) VALUES
  ('CCOP(=O)(O)Cc1nc2nc[nH]c2c2nc(-c3ccc(-c4ccccc4)cc3)nn12', 'melting point', '274 to 277 °C'),
  ('CCOCc1nc2nc[nH]c2c2nc(-c3ccc(C(C)(C)C)cc3)nn12', 'melting point', '243 to 244 °C'),
  ('CCCOc1ccc(-c2nc3c4[nH]cnc4nc(CCOC)n3n2)cc1', 'melting point', '231.5 to 232.5 °C'),
  ('CCOP(=O)(CCc1nc2nc[nH]c2c2nc(-c3ccc(-c4ccccc4)cc3)nn12)OCC', 'melting point', '≥ 110 °C');

Return melting point for the following compound: c1ccc(COCCCCc2nc3nc[nH]c3c3nc(-c4ccc(-c5ccccc5)cc4)nn23)cc1
205 to 207 °C

For the compound CSCCc1nc2nc[nH]c2c2nc(-c3ccc(C(C)(C)C)cc3)nn12 , give its reported melting point.
229 to 231 °C

Tell me measured melting point for CCOCc1nc2nc[nH]c2c2nc(-c3ccc(C(F)(F)F)cc3)nn12 please.
≥ 280 °C

Let me know recorded melting point for CCOP(=O)(CCCc1nc2nc[nH]c2c2nc(-c3ccc(-c4ccccc4)cc3)nn12)OCC , thanks.
175 to 178 °C

----------
assay-metric: melting point

INSERT INTO measurements (molecule, assay_metric, obs_value) VALUES
  ('COCc1nc2nc[nH]c2c2nc(-c3ccccc3)nn12', 'melting point', '≥ 280 °C'),
  ('CS(=O)(=O)CCc1nc2nc[nH]c2c2nc(-c3ccc(C(F)(F)F)cc3)nn12', 'melting point', '≥ 261 °C (dec.)');

Fill in reported melting point for this entry: C[S+]([O-])Cc1nc2nc[nH]c2c2nc(-c3ccc(-c4ccccc4)cc3)nn12 (stereo not drawn)
≥ 246 °C (dec.)
